RGA min: recorded values
# Measured On: T1, human BMP7 (human, UniProt P18075 293-431)
# T1 sequence: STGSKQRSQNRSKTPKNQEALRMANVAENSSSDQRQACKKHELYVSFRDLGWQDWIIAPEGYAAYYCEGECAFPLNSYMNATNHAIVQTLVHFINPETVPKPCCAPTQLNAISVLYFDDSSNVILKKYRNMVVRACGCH
# Procedure Text: cell-based or functional assay
Lab note: jot the number down without any unit.

Known RGA min results, listed for orientation:
INSERT INTO results (binder, measurement_kind, assay_value) VALUES
  ('Antibody 5 (antibody, human IgG1, lambda, V domains shown, germlined clone of NOV0787 (HCDR2-matured NOV0442_VL[Y49,G50,N51Q]); human IgG1; lead antibody; also called NOV0951; NOV951) VH: QVQLVESGGGLVKPGGSLRLSCAASGFTFSSYVVHWVRQAPGKGLEWVGRIKRESSSYTTMYAAPVKGRFTISRDDSKNTLYLQMNSLKTEDTAVYYCARVERSKSGFDNWGQGTLVTVSS VL: QSVLTQPPSVSGAPGQRVTISCTGSSSNIGAGYSVHWYQQLPGTAPKLLIYGQSERPSGVPDRFSGSKSGTSASLAITGLQAEDEADYYCQSWDSSQTLVVFGGGTKLTVLG', 'RGA min', 0.5),
  ('Antibody 6 (antibody, human IgG1, lambda, V domains shown, germlined clone of NOV0798 (HCDR2-matured NOV0442_VL[Y49,G50,N51Q]); human IgG1; lead antibody; also called NOV0954; NOV954) VH: QVQLVESGGGLVKPGGSLRLSCAASGFTFSSYVVHWVRQAPGKGLEWVGRTRHSDMGYATSYAAPVKGRFTISRDDSKNTLYLQMNSLKTEDTAVYYCARVERSKSGFDNWGQGTLVTVSS VL: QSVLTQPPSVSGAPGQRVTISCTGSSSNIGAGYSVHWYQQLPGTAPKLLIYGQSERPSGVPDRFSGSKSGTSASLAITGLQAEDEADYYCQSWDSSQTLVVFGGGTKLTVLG', 'RGA min', 0.5),
  ('Antibody 3 (antibody, human IgG1, lambda, V domains shown, germlined clone of NOV0800 (HCDR2-matured NOV0442_VL[Y49,G50,N51S]); human IgG1; back-up antibody; also called NOV0961; NOV961) VH: QVQLVESGGGLVKPGGSLRLSCAASGFTFSSYVVHWVRQAPGKGLEWVGRIKDHKQGYTTAYAASVKGRFTISRDDSKNTLYLQMNSLKTEDTAVYYCARVERSKSGFDNWGQGTLVTVSS VL: QSVLTQPPSVSGAPGQRVTISCTGSSSNIGAGYSVHWYQQLPGTAPKLLIYGSSERPSGVPDRFSGSKSGTSASLAITGLQAEDEADYYCQSWDSSQTLVVFGGGTKLTVLG', 'RGA min', 0.8);

// next entry
Requested read-out: RGA min. Entry: Antibody 7 (antibody, human IgG1, lambda, V domains shown, germlined clone of NOV0806 (HCDR2-matured NOV0442_VL[Y49,G50,N51Q]); human IgG1; final lead; also called NOV0958; NOV958) VH: QVQLVESGGGLVKPGGSLRLSCAASGFTFSSYVVHWVRQAPGKGLEWVGRIRLETHGYAAEYAASVKGRFTISRDDSKNTLYLQMNSLKTEDTAVYYCARVERSKSGFDNWGQGTLVTVSS VL: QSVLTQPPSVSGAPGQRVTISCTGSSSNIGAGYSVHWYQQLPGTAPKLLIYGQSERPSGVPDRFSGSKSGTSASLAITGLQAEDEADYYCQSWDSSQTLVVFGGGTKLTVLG
0.5
